# Test system: OVCAR-4 ovarian
# experiment.summary: NCI-60 one-dose screen, 48 h (100 = growth as untreated, 0 = no growth, -100 = all killed)
# condition.description: 10 µM unless noted
The panel holds about 83,000 compounds, 20% with a hit somewhere; the sample as a whole holds those more often.
metric: growth (%)

In [3]: df
Out[3]:
                               entry_smiles           system  recorded_measurement
0        CC(C)c1ccc(/C=N/Nc2nc3ccccc3s2)cc1  OVCAR-4 ovarian                  81.4
1    O=C(NC[C@H](O)CO)c1ccncc1Nc1ccc(I)cc1F  OVCAR-4 ovarian                  41.4
2  CN1CCN(Cc2ccc(NC(=O)c3[nH]ncc3Nc3ncnc4sc5c(c34)CCCC5)cc2)CC1  OVCAR-4 ovarian                 -41.4
3  CC(C)c1cc(CNc2nc(Nc3cc(C4CC4)[nH]n3)cc(N3CCN(C)CC3)n2)on1  OVCAR-4 ovarian                 -8.07
